System: SF-295 CNS
Protocol notes: NCI-60 one-dose screen, 48 h
Condition notes: 10 µM unless noted
The panel holds about 83,000 compounds, 20% with a hit somewhere; the sample as a whole holds those more often. The source made the active and inactive calls. How the source made its calls: active means growth percent below 10; inactive means the rest.
Classes used: TRUE = active, FALSE = inactive

CC(=O)Oc1ccc(CCN2C(=O)CSC2=S)cc1 :: FALSE
O=C(/C=C/c1cn(-c2ccccc2)nc1-c1ccc(Cl)cc1)c1cc2ccccc2oc1=O :: FALSE
O=C1Nc2cc(OC(F)(F)F)ccc2Oc2ccc(-c3ccnc(N4CCNCC4)c3)cc21 :: TRUE

###

Tested on: PC-3 prostate
Protocol notes: NCI-60 one-dose screen, 48 h (100 = growth as untreated, 0 = no growth, -100 = all killed)
Condition notes: 10 µM unless noted
The panel holds about 83,000 compounds, 20% with a hit somewhere; the sample as a whole holds those more often.
We use 90% as the dividing line for growth: on or above the line is met, below is not met.

O=C1c2c(c3c4cc(Br)ccc4[nH]c3c3ccc4ccccc4c23)C(=O)N1CCN1CCNCC1 :: not met
O=C1[C@H]2Cc3c([nH]c4ccccc34)[C@@H](c3ccc(Cl)cc3)N2C(=O)CN1C1CCN(Cc2c(Cl)cccc2Cl)CC1 :: not met
O=C(CCCCCCN1CC(=O)N2[C@@H](c3cc(F)cc(F)c3)c3[nH]c4ccccc4c3C[C@H]2C1=O)NO :: not met
COc1cc(/C=N/n2cnc3oc(-c4ccccc4)cc3c2=N)cc(CN2CCCC2)c1O :: not met
N/C(=N\OC(=O)CSc1nc2ccccc2s1)c1ccc(Cl)cc1 :: met
CCOC(=O)c1ccc(N/C=C/C(=O)c2ccccc2)cc1 :: met

###

System: OVCAR-3 ovarian
Protocol notes: NCI-60 one-dose screen, 48 h
Condition notes: 10 µM unless noted
Compounds without any hit were thinned out: in the full panel of roughly 83,000, 20% have a hit. Activity calls are given as the source filed them. How the source made its calls: active means growth percent below 10; inactive means the rest.
Classes used: 1 (yes) (active), 0 (no) (inactive)

COc1ccc(CCN2C(=O)/C(=C/c3nc(CO)cs3)SC2=S)cc1 :: 0 (no)
CC1(C)CC[C@]2(C(=O)O)CC[C@]3(C)C(=CCC4[C@@]5(C)C[C@@H](O)[C@@H]6OC(c7cccc([N+](=O)[O-])c7)OC[C@@]6(C)C5CC[C@]43C)C2C1 (some centres not stated) :: 0 (no)
c1ccc(-c2c(-c3ccccc3)[n+](Cc3ccc4ccccc4c3)c(-c3ccccc3)n2Cc2ccc3ccccc3c2)cc1 :: 1 (yes)
Cn1c(SC(C(=O)Nc2ccc(F)cc2)c2ccccc2)nc2ccccc2c1=O (configuration not stated) :: 0 (no)
O=C(/C=C1\C=CN(CCCCO)c2ccccc21)n1ccc2ccccc21 :: 0 (no)
O=C1NC(=O)/C(=C/c2ccc(OCc3cc4ccccc4nc3Cl)cc2)S1 :: 0 (no)
CCOC(=O)C1=C(C)Nc2nc3ccccc3n2C1c1cccc(Br)c1 (configuration not stated) :: 0 (no)
COc1ccc(-c2nnc(SCc3ccc(O)c4ncccc34)n2-c2ccccc2)cc1 :: 1 (yes)
NC(=O)N1N=C(c2cc3ccccc3oc2=O)CC1c1cn(-c2ccccc2)nc1-c1ccc(Cl)cc1 (configuration not stated) :: 0 (no)
C/C=C/[C@@H]1C=C[C@@H]2C[C@H](C)CC[C@H]2[C@]1(C)/C(O)=C1/C(=O)[C@H](CO)N(C)C1=O :: 0 (no)
O=C(CCCCCCN1CC(=O)N2[C@@H](c3cc(F)cc(F)c3)c3[nH]c4ccccc4c3C[C@H]2C1=O)NO :: 0 (no)
COc1cc2cc(Oc3ccc(NC(=O)Nc4cccc(C(F)(F)F)c4)cc3)c(C)nc2cc1OCCN(C)C :: 0 (no)
NCCN1CCN(c2nc(-c3ccccc3)nc3nc(-c4ccccc4)oc23)CC1 :: 1 (yes)
COc1ccccc1N1CCN(C2=NN=C(c3cccc(Cl)c3)c3ccccc3C2)CC1 :: 1 (yes)
Nc1cc(F)ccc1NC(=O)c1ccc(NC(=O)C/C=C/c2cccnc2)cn1 :: 0 (no)
COc1cc([C@H]2OC[C@H]3[C@@H]2CO[C@@H]3c2ccc(O)c(OC)c2)ccc1O :: 0 (no)
O=C(Nc1cccc(-c2nc(-c3ccc(NC(=O)c4cccnc4)cc3Cl)no2)c1)Nc1ccc(NC(=O)C2CC2)c(C(F)(F)F)c1 :: 1 (yes)
COc1cc(CNC(=O)/C=C/c2ccccc2)ccc1OCC(=O)NO :: 0 (no)
COC1=C(c2ccccc2)C(=O)C(OC)=C(c2ccccc2)C1=O :: 0 (no)
Cc1ccc(Nc2ncnc3c2c(C)nn3-c2ccc([N+](=O)[O-])cc2)cc1 :: 0 (no)
CCOC(=O)c1c(NC(=O)c2cccc(C(F)(F)F)c2)sc2c(CN3CCN(C)CC3)c(O)ccc12 :: 0 (no)
CCOC(=O)/C=c1\sc2n(c1=O)C1C(NN=2)N(CC)C(=O)N1CC (configuration not stated) :: 0 (no)
COc1cc(/C=N/n2cnc3oc(-c4ccccc4)cc3c2=N)cc(CN2CCCC2)c1O :: 0 (no)
O=S(=O)(Nc1ccc(-c2nc(-c3cccc(O)c3)c(-c3ccnc(Br)c3)[nH]2)cc1)c1ccccc1 :: 0 (no)
O=C(O)c1ccc(-n2cc(CNc3ccc(F)cc3)c(-c3ccc(C(F)(F)F)cc3)n2)cc1 :: 0 (no)
C=C(C)C(=O)O[C@H]1C[C@@]2(C)OC(=CC2=O)/C(C)=C\[C@H]2OC(=O)C(=C)[C@H]12 :: 1 (yes)
O=C1[C@H]2Cc3c([nH]c4ccccc34)[C@@H](c3ccc(Cl)cc3)N2C(=O)CN1C1CCN(Cc2c(Cl)cccc2Cl)CC1 :: 0 (no)
Nc1ccc(-c2nnc(SCc3ccc(O)c4ncccc34)n2-c2ccccc2)cc1 :: 0 (no)
CC(=O)NC(C)(C)C(=O)N[C@@H](C)C(=O)NC(C)(C)C(=O)N[C@@H](C)C(=O)NC(C)(C)C(=O)N[C@@H](C)C(=O)N[C@@H](CCC(N)=O)C(=O)NC(C)(C)C(=O)N[C@H](C(=O)NC(C)(C)C(=O)NCC(=O)N[C@@H](CC(C)C)C(=O)NC(C)(C)C(=O)N1CCC[C@H]1C(=O)N[C@H](C(=O)NC(C)(C)C(=O)NC(C)(C)C(=O)N[C@@H](CCC(N)=O)C(=O)N[C@@H](CCC(N)=O)C(=O)N[C@H](CO)CC1CCCCC1)C(C)C)C(C)C :: 0 (no)
O=C(Nc1cc(F)cc2cccnc12)c1cnc(N2CCOCC2)cn1 :: 1 (yes)
CSc1ccc(/C(=N/N=C(N)N)c2ccccc2)cc1 :: 1 (yes)
Oc1ccc(CSc2nnc(-c3ccncc3)o2)c2cccnc12 :: 0 (no)
